tested-on: Tyrosine-protein phosphatase non-receptor type 5 (Homo sapiens) (UniProt P54829)
Sequence (P54829 whole entry, looked up): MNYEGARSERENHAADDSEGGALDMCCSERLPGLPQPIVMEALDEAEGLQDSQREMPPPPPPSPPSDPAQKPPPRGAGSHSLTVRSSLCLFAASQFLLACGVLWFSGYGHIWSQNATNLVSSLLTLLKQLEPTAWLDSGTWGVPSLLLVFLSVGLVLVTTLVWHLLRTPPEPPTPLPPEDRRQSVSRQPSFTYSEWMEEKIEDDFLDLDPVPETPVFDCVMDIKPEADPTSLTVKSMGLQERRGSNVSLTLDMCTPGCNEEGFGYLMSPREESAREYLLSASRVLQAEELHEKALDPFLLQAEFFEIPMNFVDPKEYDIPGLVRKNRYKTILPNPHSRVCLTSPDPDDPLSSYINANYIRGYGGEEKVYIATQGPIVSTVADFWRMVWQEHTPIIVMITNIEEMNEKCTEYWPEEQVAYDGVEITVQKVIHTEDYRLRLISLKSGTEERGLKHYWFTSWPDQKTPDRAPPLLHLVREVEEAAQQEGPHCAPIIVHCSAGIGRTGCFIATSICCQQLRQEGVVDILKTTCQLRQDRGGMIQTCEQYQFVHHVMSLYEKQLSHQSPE
assay-summary: STEP phosphatase inhibitor potency, dose response, orthogonal assay for STEP inhibitor project, biochemical, colorimetric absorbance (AID 624207)
measurement-parameters: recombinant STEP, pNPP colorimetric absorbance
Activity calls are given as the source filed them.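 The calls were made as follows: active = compounds blocking the phosphatase with IC50 at or below a set limit; inactive = the rest.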
A correct response names exactly one class from active, inactive

O=C(NN=Cc1ccccc1O)c1cccc([N+](=O)[O-])c1 | active
CSc1ccc(C=NNc2ccc(S(=O)(=O)Nc3ccccc3C(=O)O)cc2[N+](=O)[O-])cc1 | active
S=C1NC(C23CC4CC(CC(C4)C2)C3)=CC(c2ccc3c(c2)OCO3)N1 (centres undefined) | inactive
S=C1NC2=C(CCCC2=C2SCCS2)C(c2ccccc2)N1 (centres undefined) | inactive
COc1ccc(/C=N/N=C2/NC(=O)C(CC(=O)O)S2)cc1OCc1ccc(Cl)cc1Cl (centres undefined) | active

Task: Record request — test call for O=C1C(=O)N(CCCO)C(c2ccc(Br)cc2)/C1=C(\O)c1ccc(Br)cc1 (centres undefined)
Result: inactive

Task: How was "CC1=C(O)C(=O)C(C2=C(O)C(=O)C(C)=C(O)C2=O)=C(O)C1=O" classified in this test?
Result: inactive

Task: Write down the call the test reported for this molecule. Item: CCOc1cc(/C=N/N=C2/NC(=O)C(CC(=O)O)S2)ccc1OCc1ccc(Cl)cc1Cl (centres undefined)
Result: inactive

Task: // return assay outcome for "COc1ccc(OC)c(N2C(=O)[C@@H]3C(c4ccccc4Cl)=NO[C@@H]3C2=O)c1"
Result: inactive
